Tested on: ECHCG (Echinochloa crus-galli)
Test: Preemergence herbicidal evaluation
Type: in vivo, (L.) Beau
Conditions: Rate 0.2500 kg/ha; preemergence; rated 4-5 weeks after treatment
Source text: Results of herbicide evaluation are expressed on a rating scale (0-9). The scale is based upon a visual observation of plant stand, vigor, malformation, size, chlorosis and overall plant appearance as compared with a control. […]
QUANTITY_NAME: ECHCG preemergence herbicidal rating
Give the figure by itself; no unit, no explanation.

Consider the following illustrative entries.
COMPOUND: Cc1ccc(-c2nsc3ccc(-n4c(=O)cc(C(F)(F)F)n(C)c4=O)cc23)s1 [Compound 21]
OBSERVED_RESULT: 6.5
//
COMPOUND: C[C@@H]1O[C@@H]1c1nsc2ccc(-n3c(=O)cc(C(F)(F)F)n(C)c3=O)cc12 [Compound 13]
OBSERVED_RESULT: 9.0
//
COMPOUND: Cn1c(C(F)(F)F)cc(=O)n(-c2ccc3snc(C4OCCS4)c3c2)c1=O (centres unmarked) [Compound 31]
OBSERVED_RESULT: 9.0
//
COMPOUND: Cc1csc(-c2nsc3ccc(-n4c(=O)cc(C(F)(F)F)n(C)c4=O)cc23)n1 [Compound 7]
OBSERVED_RESULT: 3.0
//
COMPOUND: Cn1c(C(F)(F)F)cc(=O)n(-c2ccc3snc(-c4ccsc4)c3c2)c1=O [Compound 1]
OBSERVED_RESULT: 9.0

QUERY: Quick one: ECHCG preemergence herbicidal rating of Cn1c(C(F)(F)F)cc(=O)n(-c2ccc3snc(C4SCCN4C(=O)c4ccccc4)c3c2)c1=O (centres unmarked) [Compound 30] ?
RESULT: 5.0

QUERY: Quick one: ECHCG preemergence herbicidal rating of CC1CCOC(c2nsc3ccc(-n4c(=O)cc(C(F)(F)F)n(C)c4=O)cc23)O1 (centres unmarked) [Compound 37] ?
RESULT: 9.0

QUERY: Quick one: ECHCG preemergence herbicidal rating of CCOC(=O)C1CS[C@H](c2nsc3ccc(-n4c(=O)cc(C(F)(F)F)n(C)c4=O)cc23)N1 (some centres unmarked) [Compound 2] ?
RESULT: 8.0

---

herbicidal rating, SAGPY: recorded values
Tested on: SAGPY (Sagittaria pygmaea)
Assay: Flooded paddy, preemergence weed control
Type: in vivo, L.
Details: rate 0.0320 kg/ha, rated 3-4 weeks after treatment, 0-9 rating scale
Give the figure by itself; no unit, no explanation.

MOLECULE: CN(C(=O)c1nsc2ccc(-n3c(=O)cc(C(F)(F)F)n(C)c3=O)cc12)c1ccc(Cl)cc1
herbicidal rating, SAGPY: 1.5
--
MOLECULE: Cn1c(C(F)(F)F)cc(=O)n(-c2ccc3snc(C4OCCS4)c3c2)c1=O (stereo not shown)
herbicidal rating, SAGPY: 9.0
--
MOLECULE: CC1COC(c2nsc3ccc(-n4c(=O)cc(C(F)(F)F)n(C)c4=O)cc23)O1 (stereo not shown)
herbicidal rating, SAGPY: 4.5
--
MOLECULE: C[C@H]1OC(c2nsc3ccc(-n4c(=O)cc(C(F)(F)F)n(C)c4=O)cc23)O[C@@H]1C
herbicidal rating, SAGPY: 7.5
--
MOLECULE: Cc1cccnc1-c1nsc2ccc(-n3c(=O)cc(C(F)(F)F)n(C)c3=O)cc12
herbicidal rating, SAGPY: 2.5
--
MOLECULE: Cc1cnn(-c2nsc3ccc(-n4c(=O)cc(C(F)(F)F)n(C)c4=O)cc23)c1
herbicidal rating, SAGPY: 0.0
--
MOLECULE: C[C@@H]1OC(c2nsc3ccc(-n4c(=O)cc(C(F)(F)F)n(C)c4=O)cc23)O[C@@H]1C (stereo partly shown)
herbicidal rating, SAGPY: 7.5
--
MOLECULE: CC1CC(C)(C)OC(c2nsc3ccc(-n4c(=O)cc(C(F)(F)F)n(C)c4=O)cc23)O1 (stereo not shown)
herbicidal rating, SAGPY: 0.0

QUERY: Quick one: herbicidal rating, SAGPY of C[C@@H]1C[C@H](C)OC(c2nsc3ccc(-n4c(=O)cc(C(F)(F)F)n(C)c4=O)cc23)O1 (stereo partly shown) ?
RESULT: 7.0

QUERY: Quick one: herbicidal rating, SAGPY of Cn1c(C(F)(F)F)cc(=O)n(-c2ccc3snc(-c4ccsc4)c3c2)c1=O ?
RESULT: 4.0

QUERY: Quick one: herbicidal rating, SAGPY of Cn1c(C(F)(F)F)cc(=O)n(-c2ccc3snc(-c4cccs4)c3c2)c1=O ?
RESULT: 1.0

QUERY: Quick one: herbicidal rating, SAGPY of Cn1c(C(F)(F)F)cc(=O)n(-c2cc3c(C4OCCCO4)nsc3cc2F)c1=O ?
RESULT: 6.0
